Test system: Mus musculus
assayComment: Anticonvulsant activity against subcutaneous pentylenetetrazole-induced seizures in albino mouse assessed as onset of seizure time at 30 mg/kg, ip after 0.5 hr
Format: functional
details: route intraperitoneal
Mark 1 only for Time values smaller than 3 min; exact matches and larger values are -1.

// known answers, use as guide
| compound | assignedClass |
| --- | --- |
| O=C1c2ccccc2C(=O)N1c1cccc(Cl)c1 | -1 |
| O=C1c2ccccc2C(=O)N1c1cccc(F)c1 | -1 |

Query: Is Time strictly under 3 min for the entry O=C1c2ccccc2C(=O)N1c1cccc([N+](=O)[O-])c1 ?
Reply: -1

Query: Hello, is Time of the following compound strictly smaller than 3 min? O=C1c2ccccc2C(=O)N1c1ccc([N+](=O)[O-])cc1
Reply: -1
